target: human BCL6 BTB domain (Homo sapiens, UniProt P41182); experiment: BCL6 TR-FRET assay; assay type: binding; details: read-out: BCL6 TR-FRET IC50 Geometric Mean
MEASURED PARAMETER: IC50 (nM)
Write it as a number; the unit nM goes unstated.

Task: Given `C[C@H]1C[C@@H](O)CN(c2ncc(Cl)c(Nc3ccc4c(c3)c3c(c(=O)n4C)OCC(F)(F)[C@H](C4CC4)N3)n2)C1` , state its recorded IC50.
Output: 2.2

----------
Biological target: ADRB2 (Homo sapiens, UniProt P07550)
Sequence (P07550 whole entry): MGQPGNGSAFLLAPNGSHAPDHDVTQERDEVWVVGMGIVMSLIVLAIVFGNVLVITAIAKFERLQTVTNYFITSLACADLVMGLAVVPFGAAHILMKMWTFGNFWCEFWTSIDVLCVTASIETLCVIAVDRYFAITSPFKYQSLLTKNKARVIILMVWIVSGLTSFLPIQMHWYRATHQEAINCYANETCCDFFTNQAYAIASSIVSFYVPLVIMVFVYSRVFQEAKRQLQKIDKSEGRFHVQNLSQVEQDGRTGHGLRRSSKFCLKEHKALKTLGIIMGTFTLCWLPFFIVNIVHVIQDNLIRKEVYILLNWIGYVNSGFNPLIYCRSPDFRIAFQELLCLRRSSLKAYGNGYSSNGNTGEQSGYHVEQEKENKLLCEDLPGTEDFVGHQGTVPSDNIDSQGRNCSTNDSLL
Experiment: SAFETYscan cAMP ADRB2 Agonist
Details: read-out: RC50 (EC50)
Source text: Supplement jm3c00155_si_002.xlsx, sheet "SAFETYScan" | column: RC50 (uM); Max Response
pEC50: −log10 of the molar value.
MEASURED PARAMETER: pEC50

Task: I would be grateful if you could share the reported pEC50 for `Cn1c(=O)c2c(c3cc(Nc4ccnc(F)c4Cl)ccc31)N[C@@H](C1CC1)C(F)(F)CO2` .
Output: < 5.00

----------
biological target: ADORA2A (Homo sapiens, UniProt P29274); experiment: SAFETYscan Calcium Flux ADORA2A Antagonist; assay type: cell-based; conditions: read-out: RC50 (IC50)
Sequence (P29274 whole entry): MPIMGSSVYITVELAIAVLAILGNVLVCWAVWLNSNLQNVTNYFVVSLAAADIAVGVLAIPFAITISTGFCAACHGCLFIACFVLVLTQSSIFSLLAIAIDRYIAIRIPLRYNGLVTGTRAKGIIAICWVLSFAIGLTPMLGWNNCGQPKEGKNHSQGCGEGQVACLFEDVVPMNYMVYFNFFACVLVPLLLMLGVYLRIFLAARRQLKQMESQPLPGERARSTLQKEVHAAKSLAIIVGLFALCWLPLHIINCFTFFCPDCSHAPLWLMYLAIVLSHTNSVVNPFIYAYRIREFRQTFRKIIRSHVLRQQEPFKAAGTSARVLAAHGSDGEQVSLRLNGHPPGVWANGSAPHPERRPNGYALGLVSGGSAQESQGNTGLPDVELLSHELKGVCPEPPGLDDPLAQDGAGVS
MEASURED PARAMETER: IC50

Task: Requested field: IC50. Item: `Cn1c(=O)c2c(c3cc(Nc4ccnc(F)c4Cl)ccc31)N[C@@H](C1CC1)C(F)(F)CO2`
Output: > 10 µM

----------
molecular target: NMDAR (1A/2B) (Homo sapiens, UniProt Q05586+Q13224); test: SAFETYscan Ion Channel NMDAR (1A/2B) Blocker
Sequence (Q13224 27-1484, other chains not shown): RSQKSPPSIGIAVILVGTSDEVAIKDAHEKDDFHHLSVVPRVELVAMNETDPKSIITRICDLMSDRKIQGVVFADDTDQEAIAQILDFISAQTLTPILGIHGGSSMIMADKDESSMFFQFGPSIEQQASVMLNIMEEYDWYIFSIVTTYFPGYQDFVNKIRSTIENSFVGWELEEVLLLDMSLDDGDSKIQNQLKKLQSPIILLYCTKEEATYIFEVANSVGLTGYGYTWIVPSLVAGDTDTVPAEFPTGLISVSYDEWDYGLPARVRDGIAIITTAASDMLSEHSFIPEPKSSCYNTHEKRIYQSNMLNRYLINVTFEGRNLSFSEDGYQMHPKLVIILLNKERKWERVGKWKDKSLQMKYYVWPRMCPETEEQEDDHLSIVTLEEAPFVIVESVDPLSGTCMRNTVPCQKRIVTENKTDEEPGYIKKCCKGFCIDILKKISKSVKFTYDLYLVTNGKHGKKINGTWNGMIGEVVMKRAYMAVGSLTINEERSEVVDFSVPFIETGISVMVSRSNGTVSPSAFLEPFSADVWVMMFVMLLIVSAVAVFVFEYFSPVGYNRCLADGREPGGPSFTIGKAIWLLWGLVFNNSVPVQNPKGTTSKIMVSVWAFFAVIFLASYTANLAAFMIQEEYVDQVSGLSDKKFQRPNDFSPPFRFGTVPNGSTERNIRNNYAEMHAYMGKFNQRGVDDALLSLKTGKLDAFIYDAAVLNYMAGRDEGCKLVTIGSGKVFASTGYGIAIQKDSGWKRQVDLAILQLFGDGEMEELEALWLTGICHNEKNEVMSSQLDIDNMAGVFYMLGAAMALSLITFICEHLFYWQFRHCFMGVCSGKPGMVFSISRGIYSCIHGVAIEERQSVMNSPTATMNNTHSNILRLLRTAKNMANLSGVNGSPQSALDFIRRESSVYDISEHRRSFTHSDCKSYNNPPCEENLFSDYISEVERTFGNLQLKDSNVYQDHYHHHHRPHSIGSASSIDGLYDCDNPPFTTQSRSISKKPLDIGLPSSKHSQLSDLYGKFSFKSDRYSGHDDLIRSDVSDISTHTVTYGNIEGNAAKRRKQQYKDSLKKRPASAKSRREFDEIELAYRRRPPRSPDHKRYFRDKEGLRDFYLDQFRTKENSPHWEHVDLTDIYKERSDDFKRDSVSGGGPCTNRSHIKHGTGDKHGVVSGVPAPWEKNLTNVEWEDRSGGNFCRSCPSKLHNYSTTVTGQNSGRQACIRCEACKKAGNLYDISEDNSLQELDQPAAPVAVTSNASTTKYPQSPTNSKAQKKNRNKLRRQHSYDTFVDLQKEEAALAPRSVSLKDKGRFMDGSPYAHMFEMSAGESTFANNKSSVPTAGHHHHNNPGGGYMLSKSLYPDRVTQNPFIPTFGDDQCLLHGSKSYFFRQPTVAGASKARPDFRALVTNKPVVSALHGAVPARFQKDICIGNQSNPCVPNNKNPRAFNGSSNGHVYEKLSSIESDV
MEASURED PARAMETER: IC50

Task: What value of IC50 has been reported for the following compound? `Cn1c(=O)c2c(c3cc(Nc4ccnc(F)c4Cl)ccc31)N[C@@H](C1CC1)C(F)(F)CO2`
Output: > 10 µM

----------
biological target: BCL6-SMRT (NCOR2) corepressor protein-protein interaction (Homo sapiens); construct: DNA encoding full length BCL6 and SMRT; expressed in transfected cells; host or cells: HEK293T; assay: NanoBRET cellular assay (HEK293T); assay type: cell-based; details: single replicates, Table S2; read-out: BCL6 NanoBRET IC50 individual replicates
MEASURED PARAMETER: IC50 (nM)
Give a bare numeral; the unit nM is implied.

Task: I would be grateful if you could share the reported IC50 for Cc1nccc(Nc2ccc3c(c2)c2c(c(=O)n3C)OCC(F)(F)[C@H](C3CC3)N2)c1Cl [compound 16] .
Output: 129

----------
Catalogue of BCL6 TR-FRET pIC50 mean readings, one per entry.
biological target: human BCL6 BTB domain (Homo sapiens, UniProt P41182); experiment: BCL6 TR-FRET assay; assay type: binding; details: Table S1
In your answer, state the number alone without any accompanying words.

# count of solved cases: 3
>>> measured_result("Cn1c(=O)c2c(c3cc(Nc4ccnc(F)c4Cl)ccc31)N[C@@H](C1CC1)C(F)(F)CO2")
8.2095
>>> measured_result("Cn1c(=O)c2c(c3cc(Nc4nc(N5CCC5)ncc4Cl)ccc31)N[C@@H](C1CC1)C(F)(F)CO2")
8.2581
>>> measured_result("Cn1c(=O)c2c(c3cc(Nc4ccnc(Cl)c4F)ccc31)N[C@@H](C1CC1)C(F)(F)CO2")
7.6837

Here's the next entry for you.
Task: Give its BCL6 TR-FRET pIC50 mean value. Item: `Cn1c(=O)c2c(c3cc(Nc4ccnc(Cl)c4Cl)ccc31)N[C@@H](C1CC1)C(F)(F)CO2`
Output: 7.873

----------
biological target: BCL6-SMRT (NCOR2) corepressor protein-protein interaction (Homo sapiens); construct: DNA encoding full length BCL6 and SMRT; expressed in transfected cells; host or cells: HEK293T; experiment: NanoBRET cellular assay (HEK293T); format: cell-based; settings: HEK-293T, Table S2; read-out: BCL6 NanoBRET IC90 individual replicates
Recorded IC90 values for a group of molecules are listed next.
# output: number + unit

Example entries begin here.
>>> measured_result("COC1CN(c2ncc(Cl)c(Nc3ccc4c(c3)c3c(c(=O)n4C)OCC(F)(F)[C@H](C4CC4)N3)n2)C1")
"386 nM"
>>> measured_result("Cn1c(=O)c2c(c3cc(Nc4ccnc(Cl)c4F)ccc31)N[C@@H](C1CC1)C(F)(F)CO2")
"616 nM"
>>> measured_result("Cn1c(=O)c2c(c3cc(Nc4nc(N5CC6CCC(C5)O6)ncc4Cl)ccc31)N[C@@H](C1CC1)C(F)(F)CO2")
"98.7 nM"
>>> measured_result("Cn1c(=O)c2c(c3cc(Nc4ccnc(F)c4Cl)ccc31)N[C@@H](C1CC1)C(F)(F)CO2")
"140 nM"
>>> measured_result("Cn1c(=O)c2c(c3cc(Nc4ccnc(Cl)c4C#N)ccc31)N[C@@H](C1CC1)C(F)(F)CO2")
"124 nM"
>>> measured_result("Cn1c(=O)c2c(c3cc(Nc4nc(N5CC(F)(F)C5)ncc4Cl)ccc31)N[C@@H](C1CC1)C(F)(F)CO2")
"175 nM"
>>> measured_result("Cc1nccc(Nc2ccc3c(c2)c2c(c(=O)n3C)OCC(F)(F)[C@H](C3CC3)N2)c1Cl")
"639 nM"

Task: # get_value(readout= IC90, system= BCL6-SMRT (NCOR2) corepressor protein-protein interaction (Homo sapiens)) for `Cn1c(=O)c2c(c3cc(Nc4nc(N5CCC5)ncc4Cl)ccc31)N[C@@H](C1CC1)C(F)(F)CO2`
Output: 1620 nM

----------
Target: HTR1A (Homo sapiens)
Sequence (P08908 1-422): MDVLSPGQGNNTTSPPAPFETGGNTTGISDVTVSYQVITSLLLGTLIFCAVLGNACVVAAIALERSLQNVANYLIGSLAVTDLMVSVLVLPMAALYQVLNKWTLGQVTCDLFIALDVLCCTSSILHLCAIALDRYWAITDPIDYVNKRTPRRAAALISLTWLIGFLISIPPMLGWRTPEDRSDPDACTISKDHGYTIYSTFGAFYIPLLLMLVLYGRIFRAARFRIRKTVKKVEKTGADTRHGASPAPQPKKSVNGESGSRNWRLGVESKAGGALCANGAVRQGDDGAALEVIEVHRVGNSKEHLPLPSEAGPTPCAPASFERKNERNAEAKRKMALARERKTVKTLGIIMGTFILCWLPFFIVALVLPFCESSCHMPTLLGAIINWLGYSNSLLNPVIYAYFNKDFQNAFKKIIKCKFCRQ
Test: SAFETYscan cAMP HTR1A Agonist
MEASURED PARAMETER: EC50

Task: API: value(readout=EC50, system=HTR1A (Homo sapiens)) for record `Cn1c(=O)c2c(c3cc(Nc4ccnc(F)c4Cl)ccc31)N[C@@H](C1CC1)C(F)(F)CO2`
Output: > 10 µM

----------
Molecular target: OPRM1 (Homo sapiens, UniProt P35372)
Sequence (P35372 whole entry): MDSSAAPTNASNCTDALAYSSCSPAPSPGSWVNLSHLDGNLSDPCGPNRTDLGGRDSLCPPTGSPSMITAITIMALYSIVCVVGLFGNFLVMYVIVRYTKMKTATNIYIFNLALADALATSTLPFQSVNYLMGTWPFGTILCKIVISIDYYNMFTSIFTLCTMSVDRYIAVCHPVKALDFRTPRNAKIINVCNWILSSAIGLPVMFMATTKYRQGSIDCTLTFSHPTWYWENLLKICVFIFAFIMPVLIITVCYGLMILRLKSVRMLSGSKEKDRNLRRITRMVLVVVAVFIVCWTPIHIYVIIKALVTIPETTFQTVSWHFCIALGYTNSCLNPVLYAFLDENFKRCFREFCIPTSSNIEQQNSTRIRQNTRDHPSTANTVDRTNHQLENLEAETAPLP
Assay: SAFETYscan cAMP OPRM1 Agonist
Source text: Supplement jm3c00155_si_002.xlsx, sheet "SAFETYScan" | column: RC50 (uM); Max Response
MEASURED PARAMETER: EC50

Task: Bench note: what EC50 did `Cn1c(=O)c2c(c3cc(Nc4ccnc(F)c4Cl)ccc31)N[C@@H](C1CC1)C(F)(F)CO2` show?
Output: > 10 µM

----------
biological target: human BCL6 BTB domain (Homo sapiens); test: BCL6 TR-FRET assay; format: binding; details: Table S1; read-out: BCL6 TR-FRET pIC50 mean (converted)
Reported IC50 values for the following compounds.
The reply should be a number in nM, with the unit left off.

Task: # query: IC50 | item `Cn1c(=O)c2c(c3cc(Nc4ccnc(Cl)c4C#N)ccc31)N[C@@H](C1CC1)C(F)(F)CO2` | system: human BCL6 BTB domain (Homo sapiens)
Output: 3.95

----------
biological target: human BCL6 BTB domain (Homo sapiens); test: BCL6 TR-FRET assay; format: binding; details: supplement; read-out: BCL6 TR-FRET IC50 Geometric Mean
MEASURED PARAMETER: IC50 (nM)
# value in nM; strip the unit string

Previously resolved entries follow.
>>> measured_result("Cn1c(=O)c2c(c3cc(Nc4ccnc(F)c4Cl)ccc31)N[C@@H](C1CC1)C(F)(F)CO2")
6.2
>>> measured_result("Cn1c(=O)c2c(c3cc(Nc4nc(N5CC(F)(F)C5)ncc4Cl)ccc31)N[C@@H](C1CC1)C(F)(F)CO2")
10.3

Task: What value of measured IC50 is listed for `Cn1c(=O)c2c(c3cc(Nc4ccnc(Cl)c4Cl)ccc31)N[C@@H](C1CC1)C(F)(F)CO2` ?
Output: 13.4

Task: And for `Cn1c(=O)c2c(c3cc(Nc4ccnc(Cl)c4F)ccc31)N[C@@H](C1CC1)C(F)(F)CO2` ?
Output: 20.7
